# Test system: Fibroblast
# ASSAY PROTOCOL: Multiplex assay against human fibroblast
# Assay type: toxicity, cell-based
# ASSAY SETUP: 24 h, 1 µM, compound concentration 1 uM, replicate 1
MEASUREMENT LABEL: Population Pyknosed Nuclei (%)
Report as a plain number; the unit % is understood.

| MOLECULE | TARGET ENTITY | MEASURED VALUE |
| --- | --- | --- |
| CC(/C=C1\SC(=S)N(CCCC(=O)Nc2ccc(C(=O)O)c(O)c2)C1=O)=C\c1ccccc1 | Fibroblast | 10 |
| CC(C)COc1ccc(CNC(=O)N(Cc2ccc(F)cc2)C2CCN(C)CC2)cc1 [PIMAVANSERIN] | Fibroblast | 12 |
| CCCCC(=O)N(Cc1ccc(-c2ccccc2-c2nnn[nH]2)cc1)[C@H](C(=O)O)C(C)C | Fibroblast | 14 |
| Cc1cnc(-c2cc(N3CCN(C(=O)CCS(C)(=O)=O)CC3)ncc2Cl)c(C)c1 | Fibroblast | 12 |
| N#Cc1c(Oc2cccc(OS(=O)(=O)CCCC(F)(F)F)c2)cccc1C(F)(F)F | Fibroblast | 17 |
| CC(=O)Nc1cccc2c1c(Sc1ccc(Cl)cc1)c(C)n2CC(=O)O [AZD1981] | Fibroblast | 16 |
| Cc1cccc(NC(=O)CN2CCC(c3ccccn3)CC2)c1.Cl.Cl | Fibroblast | 10 |
| Br.CS(=O)(=O)Nc1c(O)ccc2c1CCCC2C1=NCCN1 (stereo not given) | Fibroblast | 10 |

Lab entry: Fibroblast assay, molecule Cc1sc2c(c1C)C(c1ccc(Cl)cc1)=N[C@@H](CC(=O)NCCCCCCCCNC(=O)COc1cccc3c1C(=O)N(C1CCC(=O)NC1=O)C3=O)c1nnc(C)n1-2 (stereo not given in full) , Population Pyknosed Nuclei (%) = 26

Lab entry: Fibroblast assay, molecule O=C1[C@H](Cc2ccc(O)cc2)N2C(=O)CCN(C(=O)NCc3ccccc3)[C@H]2CN1Cc1cccc2ccccc12 , Population Pyknosed Nuclei (%) = 21
